B1: Azoarcus group I ribozyme (parent)
chain: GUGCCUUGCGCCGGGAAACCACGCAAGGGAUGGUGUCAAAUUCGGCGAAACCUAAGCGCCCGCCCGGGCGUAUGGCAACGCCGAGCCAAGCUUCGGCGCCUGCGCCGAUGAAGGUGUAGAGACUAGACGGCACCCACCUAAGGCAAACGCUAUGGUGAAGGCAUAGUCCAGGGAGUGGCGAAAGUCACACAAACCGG

variants of: B1; assay: reverse-splicing fitness (ratio to wild type); higher = more active; in vitro selection; Mg2+ level not given
measure: reverse-splicing fitness

[[record]]
mutation_id = "A111U A120G A145U U176A"
measure = "reverse-splicing fitness"
reported_value = 0.0396

[[record]]
mutation_id = "C82G A111G A145C C150U U176A"
measure = "reverse-splicing fitness"
reported_value = 0.0557

[[record]]
mutation_id = "C82U A111C A120C A145G C150G C169U U176G"
measure = "reverse-splicing fitness"
reported_value = 0.007

[[record]]
mutation_id = "C82A A111U A120C A145G C150G C169U U176C"
measure = "reverse-splicing fitness"
reported_value = 0.0129

[[record]]
mutation_id = "C82U A120U A145C C150U C169U U176G"
measure = "reverse-splicing fitness"
reported_value = 0.0015

[[record]]
mutation_id = "C150A C169A U176A"
measure = "reverse-splicing fitness"
reported_value = 0.0214

[[record]]
mutation_id = "C82A A120U C150U C169U U176C"
measure = "reverse-splicing fitness"
reported_value = 0.00368

[[record]]
mutation_id = "C82A A111C A120C A145C C169U U176G"
measure = "reverse-splicing fitness"
reported_value = 0.00595

[[record]]
mutation_id = "C82U A111U A120C A145C C169A U176C"
measure = "reverse-splicing fitness"
reported_value = 0.00567

[[record]]
mutation_id = "C82U A111C C150A C169U U176C"
measure = "reverse-splicing fitness"
reported_value = 0.0169

[[record]]
mutation_id = "C82A A111G A120C A145C C150U U176C"
measure = "reverse-splicing fitness"
reported_value = 0.018

[[record]]
mutation_id = "C82G A111G A145C C169G"
measure = "reverse-splicing fitness"
reported_value = 0.00994

[[record]]
mutation_id = "C82A A111C A120U C150G C169U U176G"
measure = "reverse-splicing fitness"
reported_value = 0.00331

[[record]]
mutation_id = "C82G A111G A120G C169G U176G"
measure = "reverse-splicing fitness"
reported_value = 0.00487

[[record]]
mutation_id = "C82U A111U A120C A145G U176C"
measure = "reverse-splicing fitness"
reported_value = 0.0219

[[record]]
mutation_id = "C82U A111U A120C A145G C150G U176A"
measure = "reverse-splicing fitness"
reported_value = 0.00644

[[record]]
mutation_id = "C82A A111C A120G A145G C150U U176C"
measure = "reverse-splicing fitness"
reported_value = 0.0186

[[record]]
mutation_id = "C82A A111G A120U C150G C169A U176A"
measure = "reverse-splicing fitness"
reported_value = 0.00738

[[record]]
mutation_id = "C150A C169U U176C"
measure = "reverse-splicing fitness"
reported_value = 0.0421

[[record]]
mutation_id = "C82U A111C A120U C150U C169G"
measure = "reverse-splicing fitness"
reported_value = 0.00449

[[record]]
mutation_id = "A111U A120U A145C C150A C169G U176G"
measure = "reverse-splicing fitness"
reported_value = 0.00184

[[record]]
mutation_id = "A111G A120G C150G C169G"
measure = "reverse-splicing fitness"
reported_value = 0.0259

